We begin with a simple list: items and their reported Emax.
- Measurement Target: progesterone receptor-B (Homo sapiens, UniProt P06401)
- Assay Summary: Progesterone receptor-B transactivation, agonistic mode (CHO cells, luciferase)
- Assay type: cell-based
- Test Settings: CHO, intrinsic agonistic activity, relative to reference (16α)-16-ethyl-21-hydroxy-19-norpregn-4-ene-3,20-dione; read-out: PRBago Eff (%)
Measured Property: Emax (%)

> print(dat)
                         compound.structure                        measurement.target  reported.result
1  COc1ccc(-c2ccc([C@H]3C[C@@]4(C)[C@@H](CC[C@@]45CCCC5=O)[C@@H]4CCC5=CC(=O)CCC5=C43)cc2)cn1  progesterone receptor-B (Homo sapiens, UniProt P06401)               20
2  C[C@@H]1C[C@H]2[C@@H]3CCC4=CC(=O)CCC4=C3[C@@H](c3ccc(-c4ccncc4)cc3)C[C@]2(C)[C@H]1C(=O)C1CC1  progesterone receptor-B (Homo sapiens, UniProt P06401)               56
3  C=C[C@@H]1C[C@H]2[C@@H]3CCC4=CC(=O)CCC4=C3[C@@H](c3ccc(-c4ccc(OC)nc4)cc3)C[C@]2(C)[C@H]1C(=O)C1CC1  progesterone receptor-B (Homo sapiens, UniProt P06401)             41.4

====

- Measurement Target: progesterone receptor-B (Homo sapiens, UniProt P06401)
- Sequence (P06401 1-933): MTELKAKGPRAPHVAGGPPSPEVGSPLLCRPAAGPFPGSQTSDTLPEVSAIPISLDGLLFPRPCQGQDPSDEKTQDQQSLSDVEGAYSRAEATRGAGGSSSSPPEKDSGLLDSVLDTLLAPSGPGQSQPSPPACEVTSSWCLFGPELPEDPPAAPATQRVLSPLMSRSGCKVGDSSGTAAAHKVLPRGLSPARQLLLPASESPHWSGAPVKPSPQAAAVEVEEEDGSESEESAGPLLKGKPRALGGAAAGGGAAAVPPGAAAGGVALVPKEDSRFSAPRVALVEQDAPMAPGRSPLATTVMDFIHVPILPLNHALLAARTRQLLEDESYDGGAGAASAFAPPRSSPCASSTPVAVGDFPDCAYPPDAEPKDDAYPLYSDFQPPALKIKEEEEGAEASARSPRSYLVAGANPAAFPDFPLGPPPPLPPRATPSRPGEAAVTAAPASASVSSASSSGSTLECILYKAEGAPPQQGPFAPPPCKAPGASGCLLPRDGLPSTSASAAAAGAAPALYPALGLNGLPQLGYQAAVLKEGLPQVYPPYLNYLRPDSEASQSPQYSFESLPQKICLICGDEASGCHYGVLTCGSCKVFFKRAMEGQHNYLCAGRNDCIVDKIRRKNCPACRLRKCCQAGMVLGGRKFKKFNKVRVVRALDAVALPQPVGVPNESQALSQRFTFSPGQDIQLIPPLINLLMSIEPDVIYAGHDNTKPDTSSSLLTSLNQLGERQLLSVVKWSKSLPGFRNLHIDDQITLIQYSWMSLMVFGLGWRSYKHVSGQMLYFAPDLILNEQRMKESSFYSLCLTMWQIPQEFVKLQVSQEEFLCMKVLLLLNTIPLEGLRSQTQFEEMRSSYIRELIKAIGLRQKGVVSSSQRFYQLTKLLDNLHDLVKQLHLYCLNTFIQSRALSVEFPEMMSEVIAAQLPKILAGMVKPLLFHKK
- Assay Summary: Progesterone receptor-B transactivation, antagonistic mode (inhibition of luciferase transactivation by inducer, CHO cells)
- Format: cell-based
- Test Settings: CHO; intrinsic antagonistic activity, percentage of effect of standard antagonist (6β,11β,17β)-11-[4-(dimethylamino)phenyl]-4′,5′-dihydro-6-methylspiro[estra-4,9-diene-17,2′(3′H)-furan]-3-one; 0.1 nM inducer; read-out: PRBant Eff (%)
- Excerpt: In the antagonistic mode, testing must result in an intrinsic activity of between about 85% and about 15% of the maximal activity when (6β,11β,17β)-11-[4-(dimethylamino)phenyl]-4′,5′-dihydro-6-methylspiro[estra-4,9-diene-17,2′(3′H)-furan]-3-one is used as a reference. […]
Measured Property: Emax (%)

> print(dat)
                                   compound                        measurement.target  reported.result
1  CC[C@@H]1C[C@H]2[C@@H]3CCC4=CC(=O)CCC4=C3[C@@H](c3ccc(-c4cccnc4)cc3)C[C@]2(C)[C@H]1C(=O)C1CC1 [Example 16]  progesterone receptor-B (Homo sapiens, UniProt P06401)               53
2  C[C@@H]1C[C@@H]2C(=C3CCC(=O)C=C31)[C@@H](c1ccc(-c3cccnc3)cc1)C[C@@]1(C)[C@H]2C[C@@H](C)[C@@H]1C(=O)C1CC1 [Example 26]  progesterone receptor-B (Homo sapiens, UniProt P06401)               17
3  COc1ccc(-c2ccc([C@H]3C[C@]4(C)[C@@H](C(=O)C5CC5)CC[C@H]4[C@@H]4CCC5=CC(=O)CCC5=C43)cc2)cn1 [Example 19]  progesterone receptor-B (Homo sapiens, UniProt P06401)               57

====

Recorded EC50 by entry
- Measurement Target: progesterone receptor-B (Homo sapiens, UniProt P06401)
- Assay Summary: Progesterone receptor-B transactivation, antagonistic mode (inhibition of luciferase transactivation by inducer, CHO cells)
- Format: cell-based
- Test Settings: in the presence of 0.1 nM inducer (16α)-16-ethyl-21-hydroxy-19-norpregn-4-ene-3,20-dione; read-out: PRBant EC50
Measured Property: EC50 (nM)

> print(dat)
                         compound.structure  measured.property  reported.result
1  COc1ccc(-c2ccc([C@H]3C[C@@]4(C)[C@@H](C[C@@H](C)[C@@H]4C(=O)C4CC4)[C@@H]4CCC5=CC(=O)CCC5=C43)cc2)cn1               EC50            0.628
2  C[C@]12C[C@H](c3ccc(-c4cccnc4)cc3)C3=C4CCC(=O)C=C4CC[C@H]3[C@@H]1C[C@@H](/C=C/c1ccccc1)[C@@H]2C(=O)C1CC1               EC50               29
3  C[C@@H]1C[C@H]2[C@@H]3CCC4=CC(=O)CCC4=C3[C@@H](c3ccc(-c4cnc5ccccc5c4)cc3)C[C@]2(C)[C@H]1C(=O)C1CC1               EC50             3.14
